Molecular target: T1, Human plasmin (human, UniProt P00747 97-810, limits assumed)
T1 construct: Bought enzyme
T1 sequence (P00747 97-810 limits assumed): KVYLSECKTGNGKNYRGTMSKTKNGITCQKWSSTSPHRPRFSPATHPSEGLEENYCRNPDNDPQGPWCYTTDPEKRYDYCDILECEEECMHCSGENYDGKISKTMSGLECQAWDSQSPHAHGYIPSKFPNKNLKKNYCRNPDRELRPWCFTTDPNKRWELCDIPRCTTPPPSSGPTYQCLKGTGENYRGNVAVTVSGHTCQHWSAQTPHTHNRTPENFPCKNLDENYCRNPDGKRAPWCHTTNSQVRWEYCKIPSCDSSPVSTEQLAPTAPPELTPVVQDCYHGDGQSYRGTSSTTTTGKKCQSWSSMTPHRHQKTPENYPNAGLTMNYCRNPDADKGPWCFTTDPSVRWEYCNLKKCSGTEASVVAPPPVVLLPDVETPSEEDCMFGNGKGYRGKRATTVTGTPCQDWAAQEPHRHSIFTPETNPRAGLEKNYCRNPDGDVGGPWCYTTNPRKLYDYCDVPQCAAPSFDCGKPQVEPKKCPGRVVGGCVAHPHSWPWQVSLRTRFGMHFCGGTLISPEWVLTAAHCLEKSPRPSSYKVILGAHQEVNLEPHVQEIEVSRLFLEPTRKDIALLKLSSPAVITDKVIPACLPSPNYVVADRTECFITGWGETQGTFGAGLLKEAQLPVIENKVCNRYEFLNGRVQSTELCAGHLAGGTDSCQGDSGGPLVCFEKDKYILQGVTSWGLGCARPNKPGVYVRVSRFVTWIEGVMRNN
Assay: plasmin inhibition assay, residual amidolytic activity on S-2251
Procedure: Plasmin Inhibition Assays. […] The chromogenic substrate S-2251 was then added, and residual amidolytic activity was measured in a Molecular Devices UVmax kinetic microplate reader at different end points (0.5 and 1 hr) and S2251 (0.5 and 1 mM) concentrations. Plasmin inhibitory data were analyzed according to the quadratic binding expression. In control experiments, it was first studied if there was any substrate-induced displacement of bound inhibitor by increasing substrate concentrations.
binders and their reported pKi
Scale: negative log10 of molar concentration, which is what pKi denotes.

{"binder": "KD1 R15K/L17R double mutant (R24K/L26R in KD1 numbering) (other, Made from KD1 by site-directed mutagenesis, with the His tag removed) DAAQEPTGNNAEICLLPLDYGPCKARLLRYYYDRYTQSCRQFLYGGCEGNANNFYTWEACDDACWRIEKVPKV", "pKi": 8.52}
{"binder": "Wild type first Kunitz-type proteinase inhibitor domain of human TFPI-2 (KD1) (other, also called WTKD1; WT KD1) DAAQEPTGNNAEICLLPLDYGPCRALLLRYYYDRYTQSCRQFLYGGCEGNANNFYTWEACDDACWRIEKVPKV", "pKi": 7.66}
{"binder": "KD1 L17R mutant (L26R in KD1 numbering) (other, The His tag was removed; also called KD1 L26R; L26R KD1) DAAQEPTGNNAEICLLPLDYGPCRARLLRYYYDRYTQSCRQFLYGGCEGNANNFYTWEACDDACWRIEKVPKV", "pKi": 8.22}

Ask: Look up pKi: KD1 R15K mutant (R24K in KD1 numbering) (other, Made from KD1 by site-directed mutagenesis, with the His tag removed; also called R24K mutant) DAAQEPTGNNAEICLLPLDYGPCKALLLRYYYDRYTQSCRQFLYGGCEGNANNFYTWEACDDACWRIEKVPKV
Reply: 8.00
